- Tested on: Wild type
- TEST PROTOCOL: S. aureus survival, RN4220 and DeltatarO strains – OD600, teichoic acid synthesis inhibitors, primary screen (AID 463173)
- TEST PARAMETERS: S. aureus RN4220 wild type/DeltatarO growth, OD600, 18 h, hits give low values, screened at 18.75 µg/mL (by protocol)
Out of some 52,000 compounds screened, about 1,700 (3.3%) were called active. The list comes from a sample in which actives are over-represented; it also holds close analogues and randomly drawn compounds.
Binarize survival at 80%; below is criterion met, at or above is criterion not met.

[[record]]
compound = "COc1ccc(C2C(=O)N(C3CCCCCC3)CC(=O)N2Cc2ccc(C)cc2)cc1 (configuration not stated)"
tested_on = "Wild type"
assigned_class = "criterion met"

[[record]]
compound = "O=C(NCC(c1cccnc1)N1CCc2ccccc2C1)C(=O)Nc1cccc(Cl)c1 (configuration not stated)"
tested_on = "Wild type"
assigned_class = "criterion met"

[[record]]
compound = "FC(F)(F)c1ccc(-c2noc(-c3ccccc3Br)n2)cc1"
tested_on = "Wild type"
assigned_class = "criterion not met"

[[record]]
compound = "COc1ccc(CNC(=O)CCC2N=C3c4ccccc4N=C(SCc4ccccc4F)N3C2=O)cc1 (configuration not stated)"
tested_on = "Wild type"
assigned_class = "criterion met"

[[record]]
compound = "CCOC(=O)C(Cc1c[nH]c2ccccc12)NC(=O)COc1ccc(Cl)c(C)c1 (configuration not stated)"
tested_on = "Wild type"
assigned_class = "criterion met"

[[record]]
compound = "CCN1CCN(c2ncc3c(n2)CCN(Cc2ccccc2C)C3)CC1"
tested_on = "Wild type"
assigned_class = "criterion met"

[[record]]
compound = "O=C(c1cnc2c(c1)COc1ccccc1-2)c1ccccc1O"
tested_on = "Wild type"
assigned_class = "criterion met"

[[record]]
compound = "Cc1cc(OCC(=O)NC(Cc2c[nH]c3ccccc23)C(=O)O)ccc1Cl (configuration not stated)"
tested_on = "Wild type"
assigned_class = "criterion met"

[[record]]
compound = "Cc1ccccc1CN1CCc2nc(N3CCN(c4ccccn4)CC3)ncc2C1"
tested_on = "Wild type"
assigned_class = "criterion met"

[[record]]
compound = "CCc1ccc(C(=O)c2cn(CC(=O)Nc3ccc4c(c3)OCCO4)c3ccc(C)cc3c2=O)cc1"
tested_on = "Wild type"
assigned_class = "criterion not met"

[[record]]
compound = "Cc1ccc2c(c1)-c1ncc(C(=O)c3ccccc3O)cc1CO2"
tested_on = "Wild type"
assigned_class = "criterion met"

[[record]]
compound = "COCCCNC(=O)CSC1=Nc2ccccc2C2=NC(CCC(=O)NCc3ccccc3OC)C(=O)N12 (configuration not stated)"
tested_on = "Wild type"
assigned_class = "criterion met"

[[record]]
compound = "COc1cc2c(cc1OC)n(CC(=O)c1cc(C)ccc1C)c(=O)n1nc(CCn3nc(C)cc3C)nc21"
tested_on = "Wild type"
assigned_class = "criterion met"

[[record]]
compound = "CCCCNC(=O)CSC1=Nc2ccccc2C2=NC(CCC(=O)NCc3ccccc3OC)C(=O)N12 (configuration not stated)"
tested_on = "Wild type"
assigned_class = "criterion met"

[[record]]
compound = "CCOc1ccccc1N(CC)C(=O)c1cc2ccc3cccnc3c2[nH]1"
tested_on = "Wild type"
assigned_class = "criterion met"

[[record]]
compound = "COc1cc(C2C(=O)N(C3CCCCC3)CC(=O)N2CCC2=CCCCC2)ccc1OC(C)C (configuration not stated)"
tested_on = "Wild type"
assigned_class = "criterion not met"

[[record]]
compound = "COc1ccccc1CNC(=O)CCC1N=C2c3ccccc3N=C(SCC(=O)NCCc3ccccc3)N2C1=O (configuration not stated)"
tested_on = "Wild type"
assigned_class = "criterion not met"

[[record]]
compound = "COc1ccc(NC(=O)c2cc3c(=O)n(Cc4cccs4)ccc3nc2C)c(OC)c1"
tested_on = "Wild type"
assigned_class = "criterion not met"

[[record]]
compound = "COc1ccccc1CNC(=O)CCC1N=C2c3ccccc3N=C(SCc3ccc(C)cc3)N2C1=O (configuration not stated)"
tested_on = "Wild type"
assigned_class = "criterion not met"

[[record]]
compound = "CCOc1ccc(NC(=O)Cn2cc(C(=O)c3ccc(C)c(C)c3)c(=O)c3cc(F)ccc32)cc1"
tested_on = "Wild type"
assigned_class = "criterion not met"

[[record]]
compound = "COc1ccc(OC)c(NC(=O)CSC2=Nc3ccccc3C3=NC(CCC(=O)NCc4ccccc4)C(=O)N23)c1 (configuration not stated)"
tested_on = "Wild type"
assigned_class = "criterion met"

[[record]]
compound = "O=C(CCC1N=C2c3ccccc3N=C(SCc3ccccc3F)N2C1=O)NCc1ccc(F)cc1 (configuration not stated)"
tested_on = "Wild type"
assigned_class = "criterion met"

[[record]]
compound = "COc1ccc(OC)c(NC(=O)CSC2=Nc3ccccc3C3=NC(CCC(=O)NCCc4ccccc4)C(=O)N23)c1 (configuration not stated)"
tested_on = "Wild type"
assigned_class = "criterion met"

[[record]]
compound = "COc1ccc(OC)c(NC(=O)CSC2=Nc3ccccc3C3=NC(CCC(=O)NCc4ccco4)C(=O)N23)c1 (configuration not stated)"
tested_on = "Wild type"
assigned_class = "criterion met"

[[record]]
compound = "Cc1ccc(CN2C(=O)CN(C3CCCCCC3)C(=O)C2c2ccc(F)cc2)cc1 (configuration not stated)"
tested_on = "Wild type"
assigned_class = "criterion met"

[[record]]
compound = "CCC(Sc1ccc2nnc(CCNS(=O)(=O)c3ccc(OC)cc3)n2n1)C(=O)OC (configuration not stated)"
tested_on = "Wild type"
assigned_class = "criterion not met"

[[record]]
compound = "Cc1ccccc1CN1CCc2nc(N3CCN(c4ncccn4)CC3)ncc2C1"
tested_on = "Wild type"
assigned_class = "criterion met"

[[record]]
compound = "CCOC(=O)c1ccccc1NC(=O)c1cc2ccc3cccnc3c2[nH]1"
tested_on = "Wild type"
assigned_class = "criterion not met"

[[record]]
compound = "Cc1ccc(Cl)cc1NC(=O)C1CCN(c2nnc(C)c3c(C)n(-c4ccccc4)nc23)CC1"
tested_on = "Wild type"
assigned_class = "criterion met"

[[record]]
compound = "CN1CCN(c2ncc3c(n2)CCN(Cc2cc(Br)cs2)C3)CC1"
tested_on = "Wild type"
assigned_class = "criterion not met"

[[record]]
compound = "COC(=O)c1ccccc1NC(=O)CSc1nnc2cc(C)c3cc(C)cc(C)c3n12"
tested_on = "Wild type"
assigned_class = "criterion met"

